A collection of binders and their measured glycan array binding signal (z-score)
# System Tested: Fuc(a1-2)Gal(b1-4)[Fuc(a1-3)]GlcNAc(b1-3)[Neu5Ac(a2-6)Gal(b1-4)GlcNAc(b1-6)]Gal(b1-4)Glc
# Protocol Description: glycan array binding signal (z-score within array); higher = stronger binding
# Experimental Context: glycan notation: IUPAC condensed, linker removed
About 410 targets per protein were measured; listed, in parts, are those with the strongest signals and a random draw of the rest.

Binder	Result
LSL-150 (Laetiporus sulphureus), Q7Z8V1 (protein) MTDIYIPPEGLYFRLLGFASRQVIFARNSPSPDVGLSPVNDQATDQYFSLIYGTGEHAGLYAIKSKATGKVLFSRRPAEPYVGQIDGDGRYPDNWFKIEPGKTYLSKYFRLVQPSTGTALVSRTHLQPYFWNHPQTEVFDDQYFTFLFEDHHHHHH	-0.204
rCnSL-proA (Clitocybe nebularis) (protein) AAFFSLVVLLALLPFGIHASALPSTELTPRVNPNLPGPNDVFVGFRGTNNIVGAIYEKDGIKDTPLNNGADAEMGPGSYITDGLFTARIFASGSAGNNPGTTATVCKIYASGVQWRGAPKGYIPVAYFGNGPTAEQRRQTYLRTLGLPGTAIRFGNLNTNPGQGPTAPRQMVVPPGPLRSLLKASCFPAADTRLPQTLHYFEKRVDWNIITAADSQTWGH	-0.085
LlpB (Pseudomonas fluorescens) (protein) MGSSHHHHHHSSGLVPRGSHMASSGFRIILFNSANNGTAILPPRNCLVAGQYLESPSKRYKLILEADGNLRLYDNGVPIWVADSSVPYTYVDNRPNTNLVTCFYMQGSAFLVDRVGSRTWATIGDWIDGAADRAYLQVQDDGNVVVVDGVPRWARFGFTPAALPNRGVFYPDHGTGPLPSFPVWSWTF	0.032
CCL1 (Coprinopsis cinerea) (protein) MDTQAKPPAGRYVIYNRVLSPNGEKLALTYPGYQREALTLTPLHHSANQIWILNNWDATTSSLTPETARNTQVGWGSGNVPIVLPPGNYVWTLASSAGGYIIQDGGKTVYWNAGEAVANTKVSIGGDNGLQARWIFERV	-0.142
GS13455A-bfa-343-25-343 (Bacteroides fragilis) (protein) KDEIQIVDQDTSWQMDNKYIEEDIREQLGIDPFTDLVYLGYYGNPYTQLEAINDLVNTTLVGKNELSFKVKVTKPYKEDIKVNLMKEDKLVTDFPEMAEGIPLFPSENCTFEGGVLKAGELETTVKLTLKDVEKLNNLSGYVMAIKLTMEGSHEHLAIARTRSSYFVKLNLSIRLDNIDSSNKKIEGKGFNKEISFKSDIRPDKLGSLNDGNFTANNWYTSNANNYLTIILPEKQSLKGFRLDTNTSPSGSYMLKSCRVMVETPDGNWVNHGVFDRKSMDGIAYISFKKPVECTKVRFENMMAFNGRFSVDVNEVTAFR	-0.309

GET /values?readout=glycan array binding signal (z-score)&item= PpFlo1 (Pichia pastoris) (protein) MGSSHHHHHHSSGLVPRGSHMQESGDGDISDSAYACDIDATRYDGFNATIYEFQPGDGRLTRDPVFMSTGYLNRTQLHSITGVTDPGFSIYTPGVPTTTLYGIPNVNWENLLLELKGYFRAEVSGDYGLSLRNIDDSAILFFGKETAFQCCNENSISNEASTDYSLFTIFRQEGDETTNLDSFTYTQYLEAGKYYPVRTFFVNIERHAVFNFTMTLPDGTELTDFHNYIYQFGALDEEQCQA
-0.279

Value lookup for glycan array binding signal (z-score); key = Mincle (Bos taurus) (protein) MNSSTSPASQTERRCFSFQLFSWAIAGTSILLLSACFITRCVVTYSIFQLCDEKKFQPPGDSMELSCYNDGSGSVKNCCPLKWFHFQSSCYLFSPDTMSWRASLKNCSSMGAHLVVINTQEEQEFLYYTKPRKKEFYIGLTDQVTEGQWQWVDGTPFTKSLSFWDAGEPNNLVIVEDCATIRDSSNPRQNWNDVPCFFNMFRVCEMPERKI
-0.411
